assayedTarget: UniProtKB P50406
assayRemarks: Effect of compounds on the cAMP response of human 5-HT6 receptors (stably transfected HEK293 cells, cAMP EIA)
Format: cell-based
Design: expressed in transfected cells; host or cells: HEK293
testSettings: 1 μM serotonin, 30 min, read-out: EC50, concentration causing 50% inhibition of the serotonin-stimulated cAMP response
endpointName: pEC50
Just the number, please; pEC50 means minus log10 of the concentration in mol/L.

Recorded pEC50 for `CN1CCC(c2c[nH]c3cc(Cl)ccc23)CC1` , please?
5.72

----------
assayedTarget: human 5-HT6 receptor (Homo sapiens, UniProt P50406)
Sequence (P50406 whole entry): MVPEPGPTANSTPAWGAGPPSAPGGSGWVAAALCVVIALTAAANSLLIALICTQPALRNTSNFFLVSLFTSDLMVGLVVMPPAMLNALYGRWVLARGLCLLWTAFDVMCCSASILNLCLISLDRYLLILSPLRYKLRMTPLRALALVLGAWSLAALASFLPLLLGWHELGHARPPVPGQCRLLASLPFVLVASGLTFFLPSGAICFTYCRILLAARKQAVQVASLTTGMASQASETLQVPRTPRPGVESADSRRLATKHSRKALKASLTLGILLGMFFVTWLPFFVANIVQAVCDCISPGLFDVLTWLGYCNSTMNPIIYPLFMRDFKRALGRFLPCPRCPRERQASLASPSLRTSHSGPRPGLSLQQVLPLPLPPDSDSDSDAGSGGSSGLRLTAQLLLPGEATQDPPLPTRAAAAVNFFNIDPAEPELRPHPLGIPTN
assayRemarks: Binding affinity for the 5-HT6 receptor (3H-LSD radioligand binding, membranes of cells expressing the receptor)
Set-up: expressed in transfected cells
testSettings: Ki, 60 minute incubation at 37° C.
pKi: −log10 of the molar value. Counter-ions that a name gives are not always drawn.
endpointName: pKi

Recorded pKi for CN1CC=C(c2cn(C(=O)c3ccccc3)c3ccc(Br)cc23)CC1 [Example 6g] , please?
≥ 7.30

Recorded pKi for CN1CC=C(c2cn(S(=O)(=O)c3ccccc3)c3ccc(F)cc23)CC1 [Example 7ii] , please?
≥ 8.30

Recorded pKi for CN1CC=C(c2cn(C(=O)c3ccc(F)cc3)c3c(F)cc(F)cc23)CC1 [Example 7ar] , please?
≥ 8.30

Recorded pKi for COc1ccc(S(=O)(=O)n2cc(C3=CCN(C)CC3)c3cc(C(F)(F)F)ccc32)cc1 [Example 7vv, hydrochloride] , please?
≥ 7.30

----------
assayedTarget: human 5-HT6 receptor (Homo sapiens)
assayRemarks: Binding affinity for the 5-HT6 receptor (3H-LSD radioligand binding, membranes of cells expressing the receptor)
Parameters: expressed in transfected cells
testSettings: Ki, 60 minute incubation at 37° C.
Where a name gives a salt, the structure may show the parent alone.
endpointName: Ki

Recorded Ki for CN1CC=C(c2cn(S(=O)(=O)c3ccc(Br)cc3)c3c(F)cc(F)cc23)CC1 [Example 7am] , please?
≤ 5 nM

Recorded Ki for CN1CC=C(c2cn(C(=O)c3ccccc3)c3ccc(Cl)cc23)CC1 [Example 7jjj, hydrochloride] , please?
≤ 50 nM

Recorded Ki for CN1CC=C(c2cn(S(=O)(=O)c3ccc(F)cc3)c3ccc(F)cc23)CC1 [Example 7cc] , please?
≤ 5 nM

Recorded Ki for CN1CC=C(c2cn(S(=O)(=O)c3ccccc3)c3ccc(Cl)cc23)CC1 [Example 7jj] , please?
≤ 5 nM

Recorded Ki for CN1CC=C(c2cn(C(=O)c3ccccc3Cl)c3ccc(OC4CCCCC4)cc23)CC1 [Example 7aaa] , please?
≤ 5 nM

Recorded Ki for CN1CC=C(c2cn(S(=O)(=O)c3ccccc3)c3cc(Br)ccc23)CC1 [Example 7j] , please?
≤ 50 nM

Recorded Ki for CN1CC=C(c2cn(S(=O)(=O)c3ccccc3)c3ccc(OC4CCCCC4)cc23)CC1 [Example 7m] , please?
≤ 50 nM

Recorded Ki for CN1CC=C(c2cn(S(=O)(=O)c3ccc4ccccc4c3)c3c(F)cc(F)cc23)CC1 [Example 7ap] , please?
≤ 5 nM

Recorded Ki for CN1CC=C(c2cn(S(=O)(=O)c3ccccc3)c3c(F)cc(F)cc23)CC1 [Example 7aj] , please?
≤ 5 nM

Recorded Ki for CN1CC=C(c2cn(C(=O)c3c(Cl)cccc3Cl)c3ccc(C(F)(F)F)cc23)CC1 [Example 7qqq] , please?
≤ 50 nM

Recorded Ki for CN1CC=C(c2cn(C(=O)c3c(Cl)cccc3Cl)c3ccc(F)cc23)CC1 [Example 6f] , please?
≤ 5 nM

Recorded Ki for CN1CC=C(c2cn(C(=O)c3ccccc3Cl)c3ccc(F)cc23)CC1 [Example 6c] , please?
≤ 5 nM

Recorded Ki for CN1CC=C(c2cn(S(=O)(=O)c3ccccc3)c3ccc(C(F)(F)F)cc23)CC1 [Example 7rr, hydrochloride] , please?
≤ 5 nM

Recorded Ki for CN1CC=C(c2cn(C(=O)c3cc(Cl)ccc3Cl)c3c(F)cc(F)cc23)CC1 [Example 7as] , please?
≤ 50 nM

Recorded Ki for CN1CC=C(c2cn(S(=O)(=O)c3cccc4ccccc34)c3ccc(F)cc23)CC1 [Example 7gg] , please?
≤ 50 nM

----------
assayedTarget: human 5-HT6 receptor (Homo sapiens, UniProt P50406)
assayRemarks: Effect of compounds on the cAMP response of human 5-HT6 receptors (stably transfected HEK293 cells, cAMP EIA)
Assay type: cell-based
Parameters: expressed in transfected cells; host or cells: HEK293
testSettings: read-out: EC50, concentration causing 50% inhibition of the serotonin-stimulated cAMP response, 1 μM serotonin, 30 min
endpointName: EC50 (nM)
Report the figure in nM without appending any unit label.

API: value(readout= EC50, system= human 5-HT6 receptor (Homo sapiens, UniProt P50406), query= CN1CC=C(c2cn(S(=O)(=O)c3ccc(F)cc3)c3ccc(F)cc23)CC1 [6 cc] )
10
